Source listed as patent US10246414B2.

Target: CB1 cannabinoid receptors (CNR1 cAMP Hunter cell line) (Homo sapiens)
Sequence (P21554 whole entry): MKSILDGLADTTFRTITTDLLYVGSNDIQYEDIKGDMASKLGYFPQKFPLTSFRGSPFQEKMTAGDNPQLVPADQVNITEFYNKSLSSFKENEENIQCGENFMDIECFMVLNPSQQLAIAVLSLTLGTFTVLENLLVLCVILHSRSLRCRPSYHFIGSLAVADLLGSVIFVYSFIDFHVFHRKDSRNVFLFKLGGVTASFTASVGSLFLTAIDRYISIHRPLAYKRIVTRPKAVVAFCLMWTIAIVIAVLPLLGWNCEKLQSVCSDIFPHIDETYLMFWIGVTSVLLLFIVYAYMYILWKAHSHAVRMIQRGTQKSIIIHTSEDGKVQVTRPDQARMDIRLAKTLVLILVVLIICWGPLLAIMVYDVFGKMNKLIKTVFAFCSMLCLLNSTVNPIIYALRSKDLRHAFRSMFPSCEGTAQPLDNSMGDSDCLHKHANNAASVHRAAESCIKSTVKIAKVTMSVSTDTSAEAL
Assay: cAMP Hunter (DiscoveRx HitHunter cAMP XS+) allosteric modulation assay with CP55,940 at EC20
Assay type: cell-based
# if measured Emax < 80%: 1 (yes)  # else: 0 (no)

Example entries and their recorded answers appear below.
{"columns": ["Compound", "Study Target", "Assigned Category"],
 "data": [
  ["O=[N+]([O-])C[C@@H](c1ccccn1)c1c(-c2ccccc2)[nH]c2ccccc12 (single isomer, unassigned)", "CB1 cannabinoid receptors (CNR1 cAMP Hunter cell line) (Homo sapiens)", "0 (no)"],
  ["O=[N+]([O-])C[C@H](c1ccccc1)c1c(-c2ccccc2)[nH]c2ccccc12 (single isomer, unassigned)", "CB1 cannabinoid receptors (CNR1 cAMP Hunter cell line) (Homo sapiens)", "1 (yes)"],
  ["O=[N+]([O-])CC(c1ccccn1)c1c(-c2ccccc2)[nH]c2ccccc12 (racemic)", "CB1 cannabinoid receptors (CNR1 cAMP Hunter cell line) (Homo sapiens)", "0 (no)"],
  ["O=[N+]([O-])CC(c1ccccc1)c1cn(-c2ccccc2)c2ccccc12 (stereo not drawn)", "CB1 cannabinoid receptors (CNR1 cAMP Hunter cell line) (Homo sapiens)", "0 (no)"],
  ["O=[N+]([O-])CC(c1ccc(N2CCCCC2)cc1)c1c(-c2ccccc2)[nH]c2ccccc12 (stereo not drawn)", "CB1 cannabinoid receptors (CNR1 cAMP Hunter cell line) (Homo sapiens)", "0 (no)"],
  ["O=[N+]([O-])C[C@@H](c1ccccc1)c1c(-c2ccccc2)[nH]c2ccccc12 (single isomer, unassigned)", "CB1 cannabinoid receptors (CNR1 cAMP Hunter cell line) (Homo sapiens)", "0 (no)"]
]}

QUERY: # TODO verify Emax < 80% strictly for this compound: O=[N+]([O-])CC(c1ccccc1)c1c(-c2ccc(F)c(Cl)c2)[nH]c2ccccc12 (stereo not drawn)
RESULT: 0 (no)

QUERY: Consider O=[N+]([O-])CC(c1ccccc1)c1c(-c2ccccc2)[nH]c2ccc(Cl)cc12 (stereo not drawn) . Does its Emax lie strictly below 80%?
RESULT: 1 (yes)

QUERY: Could you please tell me whether Emax recorded for O=[N+]([O-])CC(c1ccc(-c2ccccc2)cc1)c1c(-c2ccccc2)[nH]c2ccccc12 (stereo not drawn) is less than 80%?
RESULT: 1 (yes)

QUERY: Strictly below 80% in Emax? O=[N+]([O-])CC(c1ccccc1)c1c(-c2ccc3ccccc3c2)[nH]c2ccccc12 (stereo not drawn)
RESULT: 1 (yes)

QUERY: Record O=[N+]([O-])CC(c1ccccc1)c1c(-c2ccc(F)cc2)[nH]c2ccccc12 (stereo not drawn) : is its Emax strictly below 80%?
RESULT: 0 (no)

QUERY: Hello, is Emax of the following compound strictly smaller than 80%? O=[N+]([O-])CC(c1ccccc1)c1c(-c2ccc(Cl)cc2)[nH]c2ccccc12 (stereo not drawn)
RESULT: 0 (no)

QUERY: Regarding O=[N+]([O-])C[C@H](c1ccccn1)c1c(-c2ccccc2)[nH]c2ccccc12 (single isomer, unassigned) , kindly confirm whether its Emax is beneath 80%.
RESULT: 0 (no)

QUERY: hey, is Emax for O=[N+]([O-])c1cccc(-c2c(-c3ccccc3)[nH]c3ccccc23)c1 lower than 80% or not?
RESULT: 1 (yes)
